# protocol_details: qHTS Assay for inhibitors of the human cytomegalovirus (HCMV); further: on the % scale 0 is the no-effect control and ±100 the full control effect
# assay_context: HFF cells, HCMV-luciferase reporter, 72 h; at 57.5 µM
In all, about 410,000 compounds went through this assay and about 18,000 (4.4%) were called active. Inconclusive results (about 7%) are left out. No stated cut-off is given here; in the data, active means activity change below about -60%; inconclusive means no clear call, values can overlap the other calls; inactive means above about -39%. This is one part of a sample in which actives are shown more often than they occur.
Outcomes: active, inactive

{"compound": "CC(C)(C)[C@H]1C=C(C(=O)NCc2ccccc2)O[C@@H](OCc2ccc(CO)cc2)C1", "assigned_category": "inactive"}
{"compound": "CCC(=O)N1CCc2cc(S(=O)(=O)NC(Cc3ccccc3)C(=O)NCc3ccccc3)ccc21 (centres undefined)", "assigned_category": "inactive"}
{"compound": "O=C(CSc1nc2c(c(=O)[nH]1)CN(Cc1ccc(F)cc1)CC2)Nc1ccccc1Cl", "assigned_category": "inactive"}
{"compound": "COc1ccc(-c2csc(Nc3ccc(O)cc3)n2)cc1", "assigned_category": "active"}
{"compound": "O=C(NCc1ccccc1)C1=C[C@H](C2CC2)C[C@H](OCc2ccc(CO)cc2)O1", "assigned_category": "inactive"}
{"compound": "Cc1ccc(-n2c(SCC(=O)Nc3ncc(Cl)cc3Cl)nc3ccccc32)cc1", "assigned_category": "active"}
{"compound": "O=C(CSc1oc(-c2ccco2)nc1S(=O)(=O)c1ccc(Cl)cc1)c1ccccc1", "assigned_category": "inactive"}
{"compound": "Cc1ccc(Nc2nnc(-c3ccc(C)c(S(=O)(=O)N4CCCCC4)c3)c3ccccc23)cc1", "assigned_category": "inactive"}
{"compound": "CCCn1c(N)c(C(=O)CSc2nnc(Cc3cccs3)n2C2CC2)c(=O)[nH]c1=O", "assigned_category": "inactive"}
{"compound": "CCN(CC)c1ccc(/C=N/NC(=O)CNC(=O)c2cccs2)cc1", "assigned_category": "inactive"}
{"compound": "N#C/C(=C\\c1cccc(F)c1)c1nc(-c2cc3c(ccc4ccccc43)oc2=O)cs1", "assigned_category": "inactive"}
{"compound": "Oc1cccc(C2c3[nH]c4ccccc4c3CCN2Cc2cnn(-c3ccccc3)c2)c1 (centres undefined)", "assigned_category": "inactive"}
{"compound": "CC(C)OCCCNc1ncnc2c1[nH]c1ccc(F)cc12", "assigned_category": "active"}
{"compound": "Cc1ccc(C(NC(=O)C2CCN(CCOc3ccc(Cl)cc3Cl)CC2)c2ccccn2)cc1 (centres undefined)", "assigned_category": "inactive"}
{"compound": "CCOc1ccc(Nc2ncnc3scc(-c4ccc(OC)cc4)c23)cc1", "assigned_category": "inactive"}
{"compound": "COc1ccc(-c2csc(-c3c(N)c(C(=O)c4ccc(OC)c(OC)c4)n4ccccc34)n2)cc1", "assigned_category": "inactive"}
{"compound": "CCCN(CCC)CCCNC(=O)Cn1ncc2c3ccccc3n(Cc3ccccc3)c2c1=O", "assigned_category": "inactive"}
{"compound": "Cc1cccnc1C(NC(=O)C1CCN(Cc2ccc(Cl)c(Cl)c2)CC1)c1ccc(Cl)cc1 (centres undefined)", "assigned_category": "active"}
{"compound": "Cc1ccc(N2C(=O)C(CC(=O)Nc3cccc(F)c3)N(CCc3ccncc3)C2=O)cc1 (centres undefined)", "assigned_category": "inactive"}

---

# protocol_details: qHTS Assay for inhibitors of the human cytomegalovirus (HCMV); further: on the % scale 0 is the no-effect control and ±100 the full control effect
# assay_context: HFF cells, HCMV-luciferase reporter, 72 h; at 57.5 µM; active compounds read low
# Experimental: NCGC Assay Overview: Infection with human cytomegalovirus (HCMV) continues to pose significant threats for pregnant women and immunocompromised hosts. […] This is a cell-based assay for HCMV inhibition in HFFs cells. […] At 72 h post infection cell lysates were collected and luciferase activity was determined using the Glomax-Multi + Detection System (Promega, Madison, WI). […]
Among all 410,000 compounds or so, about 18,000 (4.4%) were called active. Inconclusive results (about 7%) are left out. The sample as a whole holds a higher share of actives than the screen did.

{"compound": "O=C(COC(=O)c1ncc(Cl)c(Cl)c1Cl)NCc1ccccc1", "activity change, negative = inhibition (%)": 11.2}
{"compound": "Cc1ccccc1NC(=O)Cn1c(=O)n(CCc2ccccc2)c(=O)c2ccccc21", "activity change, negative = inhibition (%)": 24.5}
{"compound": "CCCCn1cc(S(=O)(=O)c2ccc(OCC)cc2)c(=O)c2cc(OC)c(OC)cc21", "activity change, negative = inhibition (%)": 44.7}
{"compound": "COc1ccc(S(=O)(=O)N2CC3ON=C(c4c(F)cccc4Cl)C3C2)cc1OC (stereo not given)", "activity change, negative = inhibition (%)": -7.48}
{"compound": "COc1ccc(-c2noc(CSc3nc(C)cc(=O)[nH]3)n2)cc1OC", "activity change, negative = inhibition (%)": 14.1}
{"compound": "Cc1cccc(C(C)C)c1NC(=O)C(NS(=O)(=O)c1cccc2nsnc12)c1ccccc1 (stereo not given)", "activity change, negative = inhibition (%)": -12.4}
{"compound": "CCOC(=O)c1c(NC(=O)c2ccc(S(=O)(=O)N3CCCC(C)C3)cc2)sc2c1CCN(C(C)C)C2 (stereo not given)", "activity change, negative = inhibition (%)": -62.5}
{"compound": "O=C(COC(=O)CNC(=O)C1CCCCC1)NCc1ccccc1", "activity change, negative = inhibition (%)": 69.4}
{"compound": "O=C(Cn1c(=O)n(Cc2ccccc2)c(=O)c2sc3ccccc3c21)Nc1ccccc1F", "activity change, negative = inhibition (%)": 20.5}
{"compound": "CN(Cc1ccccc1)C(=O)c1cc2c(=O)n(C)c3ccccc3c2s1", "activity change, negative = inhibition (%)": 2.36}
